- TARGET OR SYSTEM: EGFR L858R/C797S (Homo sapiens, UniProt P00533, C797S/L858R)
- Sequence (P00533 25-1210 C797S/L858R): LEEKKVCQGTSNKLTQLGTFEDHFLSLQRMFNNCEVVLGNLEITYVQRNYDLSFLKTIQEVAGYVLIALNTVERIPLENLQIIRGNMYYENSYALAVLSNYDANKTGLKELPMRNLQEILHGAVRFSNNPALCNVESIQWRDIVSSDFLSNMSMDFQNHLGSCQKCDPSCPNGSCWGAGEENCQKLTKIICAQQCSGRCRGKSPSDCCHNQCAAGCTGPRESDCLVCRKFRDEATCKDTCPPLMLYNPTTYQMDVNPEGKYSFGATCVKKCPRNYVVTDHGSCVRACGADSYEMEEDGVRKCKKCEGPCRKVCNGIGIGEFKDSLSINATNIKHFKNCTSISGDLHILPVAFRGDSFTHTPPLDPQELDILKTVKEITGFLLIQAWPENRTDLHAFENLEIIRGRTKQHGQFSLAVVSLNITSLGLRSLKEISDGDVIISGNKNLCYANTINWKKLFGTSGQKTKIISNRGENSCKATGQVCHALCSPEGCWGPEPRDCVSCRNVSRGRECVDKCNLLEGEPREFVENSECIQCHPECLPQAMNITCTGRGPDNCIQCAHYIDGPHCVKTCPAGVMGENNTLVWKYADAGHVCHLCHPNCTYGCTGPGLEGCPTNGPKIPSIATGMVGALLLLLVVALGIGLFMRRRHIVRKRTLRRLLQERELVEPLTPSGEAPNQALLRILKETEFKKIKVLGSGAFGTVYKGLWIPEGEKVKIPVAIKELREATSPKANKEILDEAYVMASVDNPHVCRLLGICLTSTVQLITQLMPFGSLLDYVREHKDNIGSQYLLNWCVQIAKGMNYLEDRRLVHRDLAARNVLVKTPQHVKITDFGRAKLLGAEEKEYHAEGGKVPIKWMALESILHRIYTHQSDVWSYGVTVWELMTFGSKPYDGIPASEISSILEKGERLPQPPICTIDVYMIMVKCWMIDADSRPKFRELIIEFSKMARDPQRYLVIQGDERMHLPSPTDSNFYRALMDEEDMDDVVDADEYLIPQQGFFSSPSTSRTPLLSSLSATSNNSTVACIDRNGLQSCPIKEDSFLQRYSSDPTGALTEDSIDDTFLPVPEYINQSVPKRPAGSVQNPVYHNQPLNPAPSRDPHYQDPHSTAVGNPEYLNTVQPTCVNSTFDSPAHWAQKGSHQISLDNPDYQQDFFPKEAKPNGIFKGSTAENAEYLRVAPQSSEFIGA
- ASSAY PROCEDURE: Biochemical EGFR kinase inhibition assay (Lance Ultra TR-FRET), double mutant L858R/C797S
- TEST PARAMETERS: Km ATP; read-out: IC50 L858R/C797S (nM), Km ATP
Reported values of IC50 for individual entries
PARAMETER MEASURED: IC50 (nM)

COMPOUND	MEASURE UNIT	NUMERIC VALUE
O=S(=O)(C1CC1)n1cc(-c2nccc(Nc3cc(N[C@H]4CC[C@@H](O)CC4)c(C#CC4C[C@@H]5CC[C@@H]4O5)cn3)n2)cn1 (stereo partly drawn)	nM	3.2
O=S(=O)(C1CC1)n1cc(-c2nccc(Nc3cc(NC4CCC(O)CC4)c(C#CC4(F)CCOC4)cn3)n2)cn1 (stereo not drawn)	nM	2.5
CC1(CO)CCN(c2cc(Nc3ccnc(-c4cnn(S(=O)(=O)C5CC5)c4)n3)ncc2C#CC2COC2)CC1	nM	1.6
O=S(=O)(C1CC1)n1cc(-c2nccc(Nc3cc(N4CCCC(O)C4)c(C#Cc4cnn(CC(F)(F)F)c4)cn3)n2)cn1 (stereo not drawn)	nM	19.8
CN1CCC(C#Cc2cnc(Nc3ccnc(-c4cnn(S(=O)(=O)C5CC5)c4)n3)cc2N2CCC3(CCCO3)CC2)C1 (stereo not drawn)	nM	1
CC1(CO)CCN(c2cc(Nc3ccnc(-c4cnn(S(=O)(=O)C5CC5)c4)n3)ncc2C#Cc2cnn(CC(F)(F)F)c2)CC1	nM	1.1

====

Reported values of IC50 for individual entries
- TARGET OR SYSTEM: EGFR wildtype (WT) (Homo sapiens)
- Sequence (P00533 25-1210): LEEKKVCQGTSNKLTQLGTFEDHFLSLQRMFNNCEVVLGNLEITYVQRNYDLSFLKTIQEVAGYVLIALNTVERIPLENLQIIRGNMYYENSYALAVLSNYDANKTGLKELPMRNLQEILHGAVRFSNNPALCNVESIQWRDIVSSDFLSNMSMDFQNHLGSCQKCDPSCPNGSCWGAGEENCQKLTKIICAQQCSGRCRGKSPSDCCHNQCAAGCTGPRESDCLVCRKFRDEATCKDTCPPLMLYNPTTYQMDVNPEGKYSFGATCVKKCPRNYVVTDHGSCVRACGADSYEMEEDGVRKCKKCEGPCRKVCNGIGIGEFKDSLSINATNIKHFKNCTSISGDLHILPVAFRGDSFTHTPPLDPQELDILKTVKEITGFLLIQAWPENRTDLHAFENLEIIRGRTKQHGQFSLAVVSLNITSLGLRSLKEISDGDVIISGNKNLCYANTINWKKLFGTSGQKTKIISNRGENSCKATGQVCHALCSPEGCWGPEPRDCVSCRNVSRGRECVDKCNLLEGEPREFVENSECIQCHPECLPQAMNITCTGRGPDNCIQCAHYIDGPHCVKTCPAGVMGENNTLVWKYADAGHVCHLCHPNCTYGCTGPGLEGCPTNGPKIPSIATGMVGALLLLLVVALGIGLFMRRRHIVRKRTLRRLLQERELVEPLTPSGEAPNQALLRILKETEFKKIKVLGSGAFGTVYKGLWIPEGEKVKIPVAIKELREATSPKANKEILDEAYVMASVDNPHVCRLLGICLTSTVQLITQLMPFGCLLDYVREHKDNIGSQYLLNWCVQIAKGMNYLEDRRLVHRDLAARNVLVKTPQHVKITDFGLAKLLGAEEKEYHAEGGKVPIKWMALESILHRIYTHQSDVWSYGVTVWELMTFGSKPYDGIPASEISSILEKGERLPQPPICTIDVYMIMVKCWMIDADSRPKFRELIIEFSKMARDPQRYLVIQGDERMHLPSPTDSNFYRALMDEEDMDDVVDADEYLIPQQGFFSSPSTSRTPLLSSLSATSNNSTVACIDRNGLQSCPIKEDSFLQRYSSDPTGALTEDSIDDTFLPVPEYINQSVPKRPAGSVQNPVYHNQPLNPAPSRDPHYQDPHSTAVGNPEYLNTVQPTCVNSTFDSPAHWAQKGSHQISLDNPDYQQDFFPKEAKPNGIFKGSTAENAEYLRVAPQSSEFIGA
- ASSAY PROCEDURE: Biochemical EGFR kinase inhibition assay (Lance Ultra TR-FRET), wildtype
- TEST PARAMETERS: ATP at Km; read-out: IC50 WT (nM), Km ATP

MOLECULE	IC50 / nM
CC1(CO)CCN(c2cc(Nc3ccnc(-c4cnn(S(=O)(=O)C5CC5)c4)n3)ncc2C#CC2CCCC2)CC1	72.6
Cn1cc(C#Cc2cnc(Nc3ccnc(Nc4ccccc4S(C)(=O)=O)n3)cc2N2CCC(C)(CO)CC2)cn1	111
O=S(=O)(C1CC1)n1cc(-c2nccc(Nc3cc(N[C@@H]4CCC[C@H](O)C4)c(C#Cc4ccc(CN5CCOCC5)cc4)cn3)n2)cn1	64.8
CC1(CO)CCN(c2cc(Nc3ccnc(-c4cnn(S(=O)(=O)C5CC5)c4)n3)ncc2C#Cc2ccncc2)CC1	5
CC1(CO)CCN(c2cc(Nc3ccnc(-c4cnn(S(=O)(=O)C5CC5)c4)n3)ncc2C#Cc2cnn(C3CCOC3)c2)CC1 (stereo not shown)	6
O=S(=O)(C1CC1)n1cc(-c2nccc(Nc3cc(NC[C@H]4CC[C@@H](O)C4)c(C#Cc4cnn(C(F)F)c4)cn3)n2)cn1	14.6
O=S(=O)(C1CC1)n1cc(-c2nccc(Nc3cc(NC4CCC(O)CC4)c(C#CC4CCOC4)cn3)n2)cn1 (stereo not shown)	25.1

====

- TARGET OR SYSTEM: EGFR L858R/C797S (Homo sapiens, UniProt P00533, C797S/L858R)
- ASSAY PROCEDURE: Biochemical EGFR kinase inhibition assay (Lance Ultra TR-FRET), double mutant L858R/C797S
- TEST PARAMETERS: Km ATP; read-out: IC50 L858R/C797S (nM), Km ATP
PARAMETER MEASURED: IC50 (nM)

COMPOUND	PARAMETER MEASURED	NUMERIC VALUE
O=S(=O)(C1CC1)N1CCC(C#Cc2cnc(Nc3ccnc(-c4cnn(S(=O)(=O)C5CC5)c4)n3)cc2N[C@H]2CC[C@@H](CO)CC2)CC1	IC50	30.1
O=S(=O)(C1CC1)n1cc(-c2nccc(Nc3cc(N[C@H]4CC[C@@H](CO)CC4)c(C#CC4C[C@@H]5CC[C@@H]4O5)cn3)n2)cn1 (stereo partly drawn)	IC50	3.2
CC1(O)CCN(c2cc(Nc3ccnc(-c4cnn(S(=O)(=O)C5CC5)c4)n3)ncc2C#CC2(F)CCOC2)CC1 (stereo not drawn)	IC50	2

====

- TARGET OR SYSTEM: EGFR L858R/T790M/C797S (Homo sapiens, UniProt P00533, C797S/L858R/T790M)
- Sequence (P00533 25-1210 T790M/C797S/L858R): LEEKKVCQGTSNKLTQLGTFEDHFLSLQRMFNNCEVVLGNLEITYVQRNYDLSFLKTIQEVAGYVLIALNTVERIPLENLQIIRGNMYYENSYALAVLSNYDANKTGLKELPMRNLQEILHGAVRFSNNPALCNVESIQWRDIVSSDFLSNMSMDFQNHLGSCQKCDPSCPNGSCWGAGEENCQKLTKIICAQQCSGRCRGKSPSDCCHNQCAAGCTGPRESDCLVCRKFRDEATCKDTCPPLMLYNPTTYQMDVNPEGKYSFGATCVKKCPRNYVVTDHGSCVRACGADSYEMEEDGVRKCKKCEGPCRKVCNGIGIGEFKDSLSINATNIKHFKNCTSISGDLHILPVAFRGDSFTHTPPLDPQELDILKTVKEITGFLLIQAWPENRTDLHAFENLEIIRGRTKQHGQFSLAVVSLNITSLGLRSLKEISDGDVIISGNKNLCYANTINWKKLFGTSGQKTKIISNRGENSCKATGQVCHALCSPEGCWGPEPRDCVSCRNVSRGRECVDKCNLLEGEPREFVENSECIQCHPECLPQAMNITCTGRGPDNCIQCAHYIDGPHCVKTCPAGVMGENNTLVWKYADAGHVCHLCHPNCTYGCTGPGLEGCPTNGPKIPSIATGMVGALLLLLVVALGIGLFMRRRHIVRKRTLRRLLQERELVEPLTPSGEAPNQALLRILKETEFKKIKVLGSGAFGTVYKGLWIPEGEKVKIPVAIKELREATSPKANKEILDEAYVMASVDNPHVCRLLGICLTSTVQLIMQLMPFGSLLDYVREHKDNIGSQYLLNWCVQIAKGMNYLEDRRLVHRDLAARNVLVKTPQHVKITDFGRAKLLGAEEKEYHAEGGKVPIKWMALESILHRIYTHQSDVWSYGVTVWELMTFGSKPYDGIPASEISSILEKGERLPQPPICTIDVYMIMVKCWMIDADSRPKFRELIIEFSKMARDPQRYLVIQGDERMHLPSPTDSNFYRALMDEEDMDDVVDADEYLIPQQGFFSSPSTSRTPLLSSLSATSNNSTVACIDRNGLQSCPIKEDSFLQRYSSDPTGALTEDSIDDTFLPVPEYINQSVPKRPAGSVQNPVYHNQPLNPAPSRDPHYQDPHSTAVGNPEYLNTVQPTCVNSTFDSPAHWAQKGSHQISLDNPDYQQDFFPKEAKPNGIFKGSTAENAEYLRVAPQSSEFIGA
- ASSAY PROCEDURE: Biochemical EGFR kinase inhibition assay (Lance Ultra TR-FRET), triple mutant L858R/T790M/C797S
- TEST PARAMETERS: Km ATP; read-out: IC50 L858R/T790M/C797S (nM) Km ATP
- Experimental: Biochemical EGFR kinase assays were conducted using Lance Ultra time-resolved fluorescence resonance energy transfer (TR-FRET) technology from Perkin-Elmer. […] Each kinase reactions were incubated at room temperature for 1 hour and then stopped by the addition of 4 μL of stop solution (10 mM EDTA). […] After 60 minutes incubation at room temperature the LANCE signal was measured on an EnVision Multilabel Reader (Perkin-Elmer). […]
PARAMETER MEASURED: IC50 (nM)

COMPOUND	TARGET OR SYSTEM	NUMERIC VALUE
CN(C)CCNC1CCN(c2cc(Nc3ccnc(-c4cnn(S(=O)(=O)C5CC5)c4)n3)ncc2C#Cc2ccn(C)n2)CC1 [Example 142]	EGFR L858R/T790M/C797S (Homo sapiens, UniProt P00533, C797S/L858R/T790M)	0.2
CN1CCn2ncc(C#Cc3cnc(Nc4ccnc(-c5cnn(S(=O)(=O)C6CC6)c5)n4)cc3N3CCC(C)(CO)CC3)c2C1 [Example 150]	EGFR L858R/T790M/C797S (Homo sapiens, UniProt P00533, C797S/L858R/T790M)	0.2
CN(C)CCNC1CCN(c2cc(Nc3ccnc(-c4cnn(S(=O)(=O)C5CC5)c4)n3)ncc2C#Cc2cnn(C3CCOCC3)c2)CC1 [Example 138]	EGFR L858R/T790M/C797S (Homo sapiens, UniProt P00533, C797S/L858R/T790M)	0.1

====

Reported values of log10 of IC50 for individual entries
- TARGET OR SYSTEM: EGFR L858R/T790M/C797S (Homo sapiens, UniProt P00533, C797S/L858R/T790M)
- ASSAY PROCEDURE: Biochemical EGFR kinase inhibition assay (Lance Ultra TR-FRET), triple mutant L858R/T790M/C797S
- TEST PARAMETERS: IC50 L858R/T790M/C797S (nM), 100 μM ATP
PARAMETER MEASURED: log10 of IC50 (log10 of the value in nM)

MOLECULE	PARAMETER MEASURED	NUMERIC VALUE
CN(C)CCC1CCCN(c2cc(Nc3ccnc(-c4cnn(S(=O)(=O)C5CC5)c4)n3)ncc2C#Cc2cnn(C)c2)C1 (centres unmarked) [Example 396]	log10 of IC50	-0.15
Cn1cc(C#Cc2cnc(Nc3ccnc(-c4cnn(S(=O)(=O)C5CC5)c4)n3)cc2NCC(C)(C)CO)cn1 [Example 39]	log10 of IC50	0.94
CC1(O)CCN(c2cc(Nc3ccnc(-c4cnn(S(=O)(=O)C5CC5)c4)n3)ncc2C#CC2CCS(=O)(=O)C2)CC1 (centres unmarked) [Example 429]	log10 of IC50	-0.52
CC1(C#Cc2cnc(Nc3ccnc(-c4cnn(S(=O)(=O)C5CC5)c4)n3)cc2NC[C@H]2CC[C@H](CO)CC2)CC1 [Example 405]	log10 of IC50	1.97
Cn1cc(C#Cc2cnc(Nc3ccnc(-c4cnn(S(=O)(=O)C5CC5)c4)n3)cc2N[C@H]2CC[C@@H](O)CC2)cn1 [Example 41]	log10 of IC50	-0.10
O=S(=O)(C1CC1)n1cc(-c2nccc(Nc3cc(NC4CCC(CO)CC4)c(C#CC4(F)CCOC4)cn3)n2)cn1 (centres unmarked) [Example 434]	log10 of IC50	-0.30
O=S(=O)(C1CC1)n1cc(-c2nccc(Nc3cc(N4CCC(O)CC4)c(C#Cc4cnn(C5CC5(F)F)c4)cn3)n2)cn1 (centres unmarked) [Example 82]	log10 of IC50	0.26
CC1(CO)CCN(c2cc(Nc3ccnc(-c4cnn(S(=O)(=O)C5CC5)c4)n3)ncc2C#Cc2cnn(CC(F)F)c2)CC1 [Example 49]	log10 of IC50	0.46
Cn1cc(C#Cc2cnc(Nc3ccnc(-c4cnn(S(=O)(=O)C5CC5)c4)n3)cc2N2CCC(NCCF)CC2)cn1 [Example 129]	log10 of IC50	-0.10
CC1(O)CCC(Nc2cc(Nc3ccnc(-c4cnn(S(=O)(=O)C5CC5)c4)n3)ncc2C#Cc2cnn(C3CC3(F)F)c2)CC1 (centres unmarked) [Example 326]	log10 of IC50	0.32
CC(=O)C1CCN(c2cc(Nc3ccnc(-c4cnn(S(=O)(=O)C5CC5)c4)n3)ncc2C#Cc2cnn(C(F)(F)F)c2)CC1 [Example 334]	log10 of IC50	1.17
CC1(CO)CCN(c2cc(Nc3ccnc(-c4cnn(S(=O)(=O)C5CC5)c4)n3)ncc2C#CC2(O)CCCOC2)CC1 (centres unmarked) [Example 357]	log10 of IC50	-0.40
CC(O)C1CCN(c2cc(Nc3ccnc(-c4cnn(S(=O)(=O)C5CC5)c4)n3)ncc2C#Cc2cnn(C)c2)CC1 (centres unmarked) [Example 10]	log10 of IC50	-0.15
CC1(O)CC2(CCN(c3cc(Nc4ccnc(-c5cnn(S(=O)(=O)C6CC6)c5)n4)ncc3C#Cc3cnn(C(F)(F)F)c3)CC2)C1 [Example 104]	log10 of IC50	0.48
